System: 377384-186-R-J1-PDC complex spheroid viability
Assay: Anticancer human tumor 377384-186-R-J1-PDC patient-derived pancreatic carcinoma cell line growth inhibition [RAS]
Conditions: second compound 0.03 µM; first compound 0.1 µM; active compounds read low
The following compounds are listed with their measured viability, T/C values.
PROPERTY MEASURED: viability, T/C (%)

COMPOUND: CC1(O)CCCC1n1c(=O)c(C(F)F)cc2cnc(NC3CCN(S(C)(=O)=O)CC3)nc21 (stereo not given) + CCn1c(-c2cccnc2C(C)OC)c2c3cc(ccc31)N1CCOC(CC(NC(=O)C(C(C)C)N(C)C(=O)C3(F)CCN(C(=O)C#CC(C)(C)N(C)C)CC3)C(=O)N3CCCC(N3)C(=O)OCC(C)(C)C2)C1
PROPERTY MEASURED: viability, T/C
UNIT LABEL: %
RECORDED NUMBER: 52.6
//
COMPOUND: C=CC(=O)N1CCN(c2nc(OCC3CCCN3C)nc3c(F)c(-c4nc(N)cc(C)c4C(F)(F)F)c(Cl)cc23)C(C)C1 (stereo not given) + CCn1c(-c2cccnc2C(C)OC)c2c3cc(ccc31)N1CCOC(CC(NC(=O)C(C(C)C)N(C)C(=O)C3(F)CCN(C(=O)C#CC(C)(C)N(C)C)CC3)C(=O)N3CCCC(N3)C(=O)OCC(C)(C)C2)C1
PROPERTY MEASURED: viability, T/C
UNIT LABEL: %
RECORDED NUMBER: 92.5
//
COMPOUND: C[C@@H](NC(=O)c1ncnc(N)c1Cl)c1ncc(C(=O)Nc2cc(C(F)(F)F)c(Cl)cn2)s1 + CCn1c(-c2cccnc2C(C)OC)c2c3cc(ccc31)N1CCOC(CC(NC(=O)C(C(C)C)N(C)C(=O)C3(F)CCN(C(=O)C#CC(C)(C)N(C)C)CC3)C(=O)N3CCCC(N3)C(=O)OCC(C)(C)C2)C1
PROPERTY MEASURED: viability, T/C
UNIT LABEL: %
RECORDED NUMBER: 106
//
COMPOUND: Cc1nc(N2CCC3(CC2)COC(C)C3N)c(CO)nc1Sc1ccnc(N)c1Cl (stereo not given) + CCn1c(-c2cc(N3CCN(C)CC3)cnc2C(C)OC)c2c3cc(ccc31)-c1csc(n1)CC(NC(=O)C1CC1C)C(=O)N1CCCC(N1)C(=O)OCC(C)(C)C2
PROPERTY MEASURED: viability, T/C
UNIT LABEL: %
RECORDED NUMBER: 1.9
//
COMPOUND: CC(Nc1ccc2c(c1)OCCn1cc(N3C(=O)OCC3C(F)F)nc1-2)C(N)=O (stereo not given) + CCn1c(-c2cc(N3CCN(C)CC3)cnc2C(C)OC)c2c3cc(ccc31)-c1csc(n1)CC(NC(=O)C1CC1C)C(=O)N1CCCC(N1)C(=O)OCC(C)(C)C2
PROPERTY MEASURED: viability, T/C
UNIT LABEL: %
RECORDED NUMBER: 1.58
//
COMPOUND: C[C@@H](NC(=O)c1ncnc(N)c1Cl)c1ncc(C(=O)Nc2cc(C(F)(F)F)c(Cl)cn2)s1 + CCn1c(-c2cc(N3CCN(C)CC3)cnc2C(C)OC)c2c3cc(ccc31)-c1csc(n1)CC(NC(=O)C1CC1C)C(=O)N1CCCC(N1)C(=O)OCC(C)(C)C2
PROPERTY MEASURED: viability, T/C
UNIT LABEL: %
RECORDED NUMBER: 2.73
//
COMPOUND: NC1c2ccccc2OC12CCN(c1cnc3c(N4CCCc5ncccc54)n[nH]c3n1)CC2 (stereo not given) + CCn1c(-c2cc(N3CCN(C)CC3)cnc2C(C)OC)c2c3cc(ccc31)-c1csc(n1)CC(NC(=O)C1CC1C)C(=O)N1CCCC(N1)C(=O)OCC(C)(C)C2
PROPERTY MEASURED: viability, T/C
UNIT LABEL: %
RECORDED NUMBER: 1.39
//
COMPOUND: Nc1ccn(C2OC(CO)C(O)C2(F)F)c(=O)n1 (stereo not given) + CCn1c(-c2cccnc2C(C)OC)c2c3cc(ccc31)N1CCOC(CC(NC(=O)C(C(C)C)N(C)C(=O)C3(F)CCN(C(=O)C#CC(C)(C)N(C)C)CC3)C(=O)N3CCCC(N3)C(=O)OCC(C)(C)C2)C1
PROPERTY MEASURED: viability, T/C
UNIT LABEL: %
RECORDED NUMBER: 5.8
//
COMPOUND: CC(C)NCC(C(=O)N1CCN(c2ncnc3c2C(C)CC3O)CC1)c1ccc(Cl)cc1 (stereo not given) + CCn1c(-c2cc(N3CCN(C)CC3)cnc2C(C)OC)c2c3cc(ccc31)-c1csc(n1)CC(NC(=O)C1CC1C)C(=O)N1CCCC(N1)C(=O)OCC(C)(C)C2
PROPERTY MEASURED: viability, T/C
UNIT LABEL: %
RECORDED NUMBER: 2.3
//
COMPOUND: C=CC(=O)N1CCN(c2nc(OCC3CCCN3C)nc3c(F)c(-c4nc(N)cc(C)c4C(F)(F)F)c(Cl)cc23)C(C)C1 (stereo not given) + CCn1c(-c2cc(N3CCN(C)CC3)cnc2C(C)OC)c2c3cc(ccc31)-c1csc(n1)CC(NC(=O)C1CC1C)C(=O)N1CCCC(N1)C(=O)OCC(C)(C)C2
PROPERTY MEASURED: viability, T/C
UNIT LABEL: %
RECORDED NUMBER: 3.22
//
COMPOUND: CC(C)NCC(C(=O)N1CCN(c2ncnc3c2C(C)CC3O)CC1)c1ccc(Cl)cc1 (stereo not given) + CCn1c(-c2cccnc2C(C)OC)c2c3cc(ccc31)N1CCOC(CC(NC(=O)C(C(C)C)N(C)C(=O)C3(F)CCN(C(=O)C#CC(C)(C)N(C)C)CC3)C(=O)N3CCCC(N3)C(=O)OCC(C)(C)C2)C1
PROPERTY MEASURED: viability, T/C
UNIT LABEL: %
RECORDED NUMBER: 85.1
//
COMPOUND: CC(C)n1nc(-c2ccc3oc(N)nc3c2)c2c(N)ncnc21 + CCn1c(-c2cccnc2C(C)OC)c2c3cc(ccc31)N1CCOC(CC(NC(=O)C(C(C)C)N(C)C(=O)C3(F)CCN(C(=O)C#CC(C)(C)N(C)C)CC3)C(=O)N3CCCC(N3)C(=O)OCC(C)(C)C2)C1
PROPERTY MEASURED: viability, T/C
UNIT LABEL: %
RECORDED NUMBER: 101
//
COMPOUND: C=CC(=O)Nc1cc(Nc2nccc(-c3cn(C)c4ccccc34)n2)c(OC)cc1N(C)CCN(C)C + CCn1c(-c2cc(N3CCN(C)CC3)cnc2C(C)OC)c2c3cc(ccc31)-c1csc(n1)CC(NC(=O)C1CC1C)C(=O)N1CCCC(N1)C(=O)OCC(C)(C)C2
PROPERTY MEASURED: viability, T/C
UNIT LABEL: %
RECORDED NUMBER: 2.15
//
COMPOUND: C=CC(=O)Nc1cc(Nc2nccc(-c3cn(C)c4ccccc34)n2)c(OC)cc1N(C)CCN(C)C + CCn1c(-c2cccnc2C(C)OC)c2c3cc(ccc31)N1CCOC(CC(NC(=O)C(C(C)C)N(C)C(=O)C3(F)CCN(C(=O)C#CC(C)(C)N(C)C)CC3)C(=O)N3CCCC(N3)C(=O)OCC(C)(C)C2)C1
PROPERTY MEASURED: viability, T/C
UNIT LABEL: %
RECORDED NUMBER: 75.6
//
COMPOUND: O=C(c1ccc(F)c(F)c1Nc1ccc(I)cc1F)N1CC(O)([C@@H]2CCCCN2)C1 + CCn1c(-c2cc(N3CCN(C)CC3)cnc2C(C)OC)c2c3cc(ccc31)-c1csc(n1)CC(NC(=O)C1CC1C)C(=O)N1CCCC(N1)C(=O)OCC(C)(C)C2
PROPERTY MEASURED: viability, T/C
UNIT LABEL: %
RECORDED NUMBER: 0.07

* * *

System: 377384-186-R-J1-PDC complex spheroid viability
Assay: Anticancer human tumor 377384-186-R-J1-PDC cell line growth inhibition [RAS]; active means viability on the fitted dose curve at most 10% of control; inactive means the rest;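 further: spheroids exposed to compounds for seven days before readout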
Conditions: second compound 0.316 µM; first compound 0.316 µM
Possible outcomes: 1 = active, -1 = inactive

MOLECULE: CC(C)NCC(C(=O)N1CCN(c2ncnc3c2C(C)CC3O)CC1)c1ccc(Cl)cc1 (stereo not given) + C#Cc1c(F)ccc2cc(O)cc(-c3ncc4c(N5CC6CCC(C5)N6)nc(OCC56CCCN5CC(F)C6)nc4c3F)c12
LABEL CLASS: 1
//
MOLECULE: CC1(O)CCCC1n1c(=O)c(C(F)F)cc2cnc(NC3CCN(S(C)(=O)=O)CC3)nc21 (stereo not given) + C=CC(=O)N1CCN(c2nc(OCC3CCCN3C)nc3c(F)c(-c4nc(N)cc(C)c4C(F)(F)F)c(Cl)cc23)C(C)C1
LABEL CLASS: -1
//
MOLECULE: CC(=O)OC12COC1CC(O)C1(C)C(=O)C(O)C3=C(C)C(OC(=O)C(O)C(NC(=O)OC(C)(C)C)c4ccccc4)CC(O)(C(OC(=O)c4ccccc4)C21)C3(C)C (stereo not given) + C=CC(=O)N1CCN(c2nc(OCC3CCCN3C)nc3c(F)c(-c4nc(N)cc(C)c4C(F)(F)F)c(Cl)cc23)C(C)C1
LABEL CLASS: -1
//
MOLECULE: NC1c2ccccc2OC12CCN(c1cnc3c(N4CCCc5ncccc54)n[nH]c3n1)CC2 (stereo not given) + C=CC(=O)N1CCN(c2nc(OCC3CCCN3C)nc3c(F)c(-c4nc(N)cc(C)c4C(F)(F)F)c(Cl)cc23)C(C)C1
LABEL CLASS: -1
//
MOLECULE: Cc1nc(N2CCC3(CC2)COC(C)C3N)c(CO)nc1Sc1ccnc(N)c1Cl (stereo not given) + C=CC(=O)N1CCN(c2nc(OCC3CCCN3C)nc3c(F)c(-c4nc(N)cc(C)c4C(F)(F)F)c(Cl)cc23)C(C)C1
LABEL CLASS: -1

All figures here come from PubChem BioAssay AID2060903.
